Source listed as ChEMBL document CHEMBL1128379.

- Experiment Summary: Partition coefficient (logP)
- Format: physicochemical
- Assay Conditions: octanol/water; read-out: logP
Please respond with reported logP for every item in the list.
Give the figure only, with no unit attached.

Qu. Quick one: logP of CCO[C@H]1O[C@@H]2O[C@@]3(C)CC[C@H]4[C@H](C)[C@@H](O)C[C@@H]([C@H]1C)[C@@]24OO3 ?
Ans. 1.93

Qu. Quick one: logP of CCO[C@H]1O[C@@H]2O[C@@]3(C)CC[C@H]4[C@H](C)[C@H](O)C[C@@H]([C@H]1C)[C@@]24OO3 ?
Ans. 2.14

Qu. Quick one: logP of C[C@H]1[C@@H](O[C@@H]2O[C@H](C(=O)O)C(O)[C@H](O)C2O)O[C@@H]2O[C@H]3CC[C@H]4[C@H](C)CC[C@@H]1[C@@]24OO3 (some centres undefined) ?
Ans. 1.8

Qu. Quick one: logP of CCO[C@H]1O[C@@H]2O[C@@]3(C)CC[C@H]4[C@H](C)[C@@H](O[C@H]5O[C@@H](C(=O)O)[C@H](O)[C@@H](O)[C@@H]5O)C[C@@H]([C@H]1C)[C@@]24OO3 ?
Ans. 0.61
